Exercise: state measured MCC for each of the molecules provided.
assay: Cytotoxicity against human HeLa cells assessed as alteration of cell morphology up to 100 uM by microscopic analysis; type: cell-based

Example cases with answers are listed next.
                               input_smiles  experimental_result
0  C[C@@H](O)CNc1nc(N)c2ncn(C[C@@H](C)O)c2n1          > 100 µg/mL
1   C[C@@H](O)CNc1nc(N)nc2c1ncn2C[C@@H](C)O          > 100 µg/mL

So, `C[C@H](Cn1cnc2c(NCP(=O)(O)O)nc(N)nc21)OCP(=O)(O)O` ? Its MCC was > 100 µg/mL

###

For each record, write down the corresponding MCC.
assay: Cytotoxicity against dog MDCK cells assessed as alteration of cell morphology up to 100 uM by microscopic analysis; assay type: cell-based, Canis lupus familiaris

Working through the 3 compounds below one at a time, give MCC for each.
1. C[C@H](Cn1cnc2c(NCP(=O)(O)O)nc(N)nc21)OCP(=O)(O)O
2. C[C@@H](O)CNc1nc(N)nc2c1ncn2C[C@@H](C)O
3. C[C@@H](O)CNc1nc(N)c2ncn(C[C@@H](C)O)c2n1

1: > 100 µg/mL; 2: > 100 µg/mL; 3: > 100 µg/mL

###

test: Cytotoxicity against human CEM cells assessed as alteration of cell morphology by microscopic analysis; assay type: cell-based; details: CEM cells (CCRF-CEM)
Give MCC for every item shown.

Here are 2 compounds together with their reported answers.
>>> df
                               input_smiles  experimental_result
0  C[C@@H](O)CNc1nc(N)c2ncn(C[C@@H](C)O)c2n1          > 100 µg/mL
1   C[C@@H](O)CNc1nc(N)nc2c1ncn2C[C@@H](C)O          > 100 µg/mL

Continue with the next compound.
Sample `C[C@H](Cn1cnc2c(NCP(=O)(O)O)nc(N)nc21)OCP(=O)(O)O` ; MCC observed: > 100 µg/mL

###

Provide the recorded CC50 for the entries that follow.
tested on: MT4; assay: Cytotoxicity against human MT4 cells assessed as decrease in cell viability after 5 days by CellTiter Glo assay; assay type: cell-based; conditions: mt4, 120 h

See these solved cases before continuing.
                               input_smiles  assay_metric  experimental_result
0   C[C@H](Cn1cnc2c(N)nc(N)nc21)OCP(=O)(O)O          CC50             > 100 µM
1  CCCCCCCCCCCCCCCCOCCCOP(=O)([O-])CO[C@H](C)Cn1cnc2c(N)nc(N)nc21.[Na+]          CC50              19.8 µM

We next turn to a different molecule, shown below.
Entry `CCOC(=O)[C@H](C)NP(=O)(CO[C@H](C)Cn1cnc2c(N)nc(N)nc21)N[C@@H](C)C(=O)OCC` ; CC50 = > 100 µM

Origin of measurements: ChEMBL document CHEMBL2331282
